Target of assay: Streptavidin (Streptomyces avidinii) (UniProt P22629)
Sequence (P22629 whole entry, looked up): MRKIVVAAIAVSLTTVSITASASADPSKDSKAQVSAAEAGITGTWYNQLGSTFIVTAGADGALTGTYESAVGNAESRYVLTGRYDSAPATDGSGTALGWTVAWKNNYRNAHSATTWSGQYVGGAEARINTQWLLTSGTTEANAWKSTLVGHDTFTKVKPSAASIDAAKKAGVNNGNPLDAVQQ
Assay text: compounds binding control protein streptavidin – biophysical, small-molecule microarray, 635/667 nm fluorescence, artefact control for SMM compound annotation, primary screen (AID 1147);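 further: signal reflects streptavidin binding to arrayed compounds as a control protein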
Test parameters: higher = more signal
Measure: composite z-score
Numbers only.

Example cases with answers are listed next.
NC(=O)N1C(=O)C2C(C1=O)C1C=C(CCCO)C2C(C2CC2)N1Cc1cc2c(cc1Br)OCO2 (centres undefined); 0.129
COCCOC(=O)N1C(=O)[C@@]2(c3cc(C#CC4(O)CCCCCC4)ccc31)[C@H](C(=O)Nc1nc3ccccc3s1)[C@H]1C(=O)O[C@H](c3ccccc3)[C@H](c3ccccc3)N1[C@@H]2c1ccc(OCCO)cc1; 0.587
O=C1[C@H]2C=C(Br)[C@H](C[C@@H]2OCCCCCCO)[C@@]12CO2; -0.29

Turning now to a further compound:
Task: Form field: composite z-score recorded for O=C1[C@H]2C=C(I)[C@H](C[C@@H]2OCCCCO)[C@@]12CO2 with Streptavidin (Streptomyces avidinii) (UniProt P22629) (enter value)
Result: -0.162

---

Target of assay: Albumin (Bos taurus)
Assay text: compounds binding labelled BSA control protein – biochemical, small-molecule microarray, Alexa647 label, 635/667 nm fluorescence, artefact control for SMM control protein annotation, profiling panel (AID 1118);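 further: score merges 667 nm emission intensity and signal-to-noise per printed compound spot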
Test parameters: BSA-A647 binding, fluorescence 635 nm, higher = more signal
Hi there, I'd appreciate the recorded composite z-score for every entry that follows.
One number for each entry.

CCOC(=O)[C@H]1C/C=C/C[C@H](C(=O)OCC)C(=O)O[C@H]2[C@@H](OC)O[C@H](CO)[C@@H](OC(=O)c3ccc(Br)cc3)[C@@H]2OC1=O; 0.184

Look at each molecule and report its composite z-score.
1. CO[C@H]1O[C@H](CO)[C@@H](OC(=O)Nc2ccccc2)[C@@H]2OC(=O)[C@@H](Cc3ccc4ccccc4c3)C/C=C/C[C@H](Cc3ccc4ccccc4c3)C(=O)O[C@@H]12
2. C#CCN1[C@H](/C=C/C2CC2)[C@H](Cc2ccccc2)OC(=O)[C@@H]1Cc1ccccc1
3. CCCCCN1CC=CC23O[C@@H]4C=CCOC(=O)[C@@H]4[C@H]2C(=O)N(C(C)CO)[C@@H]3C1=O (some centres not stated)

Result:
1. 0.615
2. -0.159
3. 0.755

For each listed entry, give its composite z-score.
1. O[C@@H](Cc1ccccc1)[C@@H](/C=C/C1CC1)NCc1cccc(Cl)c1
2. NC(=O)[C@@H]1[C@H]2C(=O)O[C@H](c3ccccc3)[C@H](c3ccccc3)N2[C@H](c2ccc(OCCO)cc2)[C@@]12C(=O)Nc1ccc(C#CC3=CCCCC3)cc12
3. C=CC1c2cc(O)c(OC)cc2CCN1Cc1cccc(OC(F)(F)F)c1 (configuration not stated)

Result:
[-0.0308, 0.768, 0.971]

---

Please respond with reported composite z-score for every item in the list.
Tested on: Chordin-like protein 2 (CHRDL2)
Assay text: compounds binding chordin-like 2 – biochemical, small-molecule microarray, 635 nm fluorescence, primary screen (AID 1126);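 further: printed compound slides probed with Chrdl2 protein at 4 µg/mL for 1 h at 4 C; score merges 667 nm emission intensity with signal to noise over three replicate slides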
Test parameters: fluorescence 635 nm, higher = more signal
Numbers only.

COc1ccc(C(O)C2C=CC3C(=O)N(C)C(=O)C3N2N(c2ccccc2)c2ccccc2)c2ccccc12 (stereo not drawn); 0.776

Go through the list and state composite z-score for each entry.
1. C#CCN1[C@@H](Cc2ccc(O)cc2)C(=O)O[C@H](Cc2ccccc2)[C@@H]1/C=C/C1CC1
2. O=C1O[C@@H](c2ccccc2)[C@@H](c2ccccc2)N2[C@@H](c3ccc(OCCO)cc3)[C@]3(C(=O)Nc4ccc(C#CC5=CCCCC5)cc43)[C@@H](C(=O)N3CCCCCCC3)[C@H]12
3. O=C(O)[C@H](Cc1ccccc1)n1cc(-c2ccccc2)nn1

Result:
1: 0.498; 2: 1.42; 3: 0.238

Please state composite z-score for every compound in the list that follows.
1. COc1cc(CO)cc(I)c1O[C@H]1C=C(C(=O)NCCO)C[C@@H](N(C(=O)c2cc3ccccc3oc2=O)C2CCCCCC2)[C@@H]1O
2. Cc1ccc([C@H]2C(C(=O)O)=CCN2S(=O)(=O)c2ccc(C)cc2)cc1
3. COC(=O)[C@@]1(Cc2ccc(OC)cc2)[C@H]2c3cc(C(=O)N4CCCC4)n(CCSCCO)c3C[C@H]2CN1C(=O)c1ccccc1
4. O=C1NC(=O)C2C1C=CC(C(O)c1ccc(I)cc1)N2Nc1ccccn1 (stereo not drawn)

Result:
[0.13, -0.518, -0.633, 0.37]

---

Assay text: small molecules captured by biotinylated probe aFST – biochemical, small-molecule microarray, fluorescence 635/667, stem cell growth factor project, primary screen (AID 1086);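 further: score merges 667 nm fluorescence with signal-to-noise of each printed compound spot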
Test parameters: higher = more signal
Measure: composite z-score
Numbers only.

Solved cases below.
CCCCC(=C=CC[C@H](O)c1cccc(OCCO)c1)C[C@H](O)c1ccccn1; -0.157
CCCNC(=O)[C@@]1(Sc2ccc(C)cc2)CC(=O)N(Cc2ccccc2C(F)(F)F)[C@@H]1c1ccc(CO)cc1I; 0.574
COc1ccc(CCNC(=O)[C@@]2(c3ccc([N+](=O)[O-])cc3)CC(=O)N(CC34CC5CC(CC(C5)C3)C4)[C@@H]2c2ccc(CO)cc2I)cc1; -0.0217
C=CC[C@]12N=C(c3ccc(OCCCO)cc3)O[C@H]1c1ccccc1N(CCS(=O)(=O)c1ccccc1)C2=O; 0.0964
C=CC1c2cc(O)c(OC)cc2CCN1Cc1cccc(OC(F)(F)F)c1 (stereo not drawn); -0.108
CCOC(=O)C[C@H]1[C@H](OC(=O)c2ccc(-c3ccccc3)cc2)[C@@H](NC(=O)c2ccccc2)c2cc(OCCCO)ccc2N1C(=O)Cc1ccc(OC)cc1; -0.0166

Your task in this section: give composite z-score for each listed record.
1. CC(c1ccccc1)C(O)C1C=CC2C(=O)N(c3ccccc3)C(=O)C2N1Nc1ccccc1 (stereo not drawn)
2. NC(=O)[C@@H]1[C@H]2C(=O)O[C@H](c3ccccc3)[C@H](c3ccccc3)N2[C@H](c2ccc(OCCO)cc2)[C@@]12C(=O)Nc1ccc(C#CC3=CCCCC3)cc12

Result:
[1.38, 0.447]

---

Assay text: probe aShh binding to arrayed compounds – biochemical, biotinylated probe, 635/667 nm fluorescence, primary screen (AID 1114);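 further: probe is biotin-labelled aShh protein from a stem cell growth factor screen; measures binding of labelled protein to compounds printed on the slide; score merges feature fluorescence at 667 nm with signal-to-noise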
Test parameters: small-molecule microarray, higher = more signal
Measure: composite z-score
Give bare numbers.

Examples with answers:
CCN(CC)c1ccc(N2CC=CC34O[C@@H]5C=CCOC(=O)[C@@H]5[C@H]3C(=O)N(CCCCCCO)[C@@H]4C2=O)cc1 (some centres undefined); -0.0035
[N-]=[N+]=Nc1ccccc1C[C@]1(C(=O)NCc2ccccc2)N=C(c2ccc(OCCCO)cc2)O[C@H]1c1ccccc1N=[N+]=[N-]; 0.149
CO[C@H]1O[C@H](CO)[C@@H](OC(=O)Nc2ccc(Oc3ccccc3)cc2)[C@H](OC(=O)Nc2ccc3c(c2)OCO3)[C@@H]1OC(=O)Nc1ccc2c(c1)OCO2; 0.246

Task: GET /values?readout=composite z-score&item= CN1CCC(CCCO)=CC1c1cccs1 (centres undefined)
Result: -0.0474

---

Assay text: resazurin metabolic signal in A549 cells – cell-based, resazurin fluorescence, 24 h, PK04 Diversity Set, profiling panel (AID 1171); further: test concentration not given here
Test parameters: A549 viability, higher = more signal, called active from +8 up or from −8 down
Calls of active or inactive are those of the source.
Measure: z-score

// worked examples, z-score included
O=C1O[C@@H](c2ccccc2)[C@@H](c2ccccc2)N2[C@@H](c3ccc(OCCO)cc3)[C@]3(C(=O)Nc4ccc(C#CCCO)cc43)[C@@H](C(=O)NC[C@H](O)c3ccccc3)[C@H]12; -0.293 (inactive)
O=C(NC1CC1)[C@@H]1c2ccccc2C(=O)N(Cc2cc(F)cc(C(F)(F)F)c2)[C@H]1c1ccc(CO)cc1; 1.36 (inactive)

Below are 5 molecules. Give each one its z-score.
1. CC(=O)NCCCC[C@@H]1NC(=O)[C@H]2C[C@@H](C(=O)NCCCCCNC(=O)CS)[C@@H](c3ccc(O)cc3)N2C1=O
2. O=C1O[C@@H](c2ccccc2)[C@@H](c2ccccc2)N2[C@@H](c3ccccc3OCCO)[C@]3(C(=O)Nc4ccccc43)[C@@H](C(=O)O)[C@H]12
3. CC(CO)N1C(=O)[C@@H]2C3C(=O)OCCC/C=C\[C@H]3OC23C=CCN(CCN2CCOCC2)C(=O)[C@@H]13 (some centres not stated)
4. CC[C@@H]1C=C(C(=O)O)[C@H](c2ccc(C)cc2)N1S(=O)(=O)c1ccc(C)cc1
5. CC#CC(=O)Oc1ccc(Br)cc1C=CC(=O)OCC

Result:
1. -0.187 (inactive)
2. 0.362 (inactive)
3. -0.7 (inactive)
4. 0.357 (inactive)
5. -0.685 (inactive)

---

Assay text: small molecules captured by biotinylated probe aFGF10 – biochemical, small-molecule microarray, fluorescence 635/667, stem cell growth factor project, primary screen (AID 1071);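 further: score merges 667 nm spot intensity and signal to noise from triplicate slides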
Test parameters: higher = more signal
Please respond with reported composite z-score for every item in the list.

Recorded results for 3 molecules are shown here.
C[N+](C)(C)CCCC[C@@H]1NC(=O)[C@H]2C[C@@H](C(=O)NCCCCCCNC(=O)CS)[C@@H](c3ccc(O)cc3)N2C1=O; -0.457
COc1cc(CO)cc(I)c1O[C@H]1C=C(C(=O)NCCO)C[C@@H](N(C(=O)c2cc3ccccc3oc2=O)C2CCCCCC2)[C@@H]1O; 0.661
COCC(=C=CC[C@H](O)c1cccc(OCCO)c1)CCO; 0.242

Would you mind listing composite z-score for each of the following molecules?
1. CCCC[C@H]1C[C@@H]1[C@@H]1N(P(=O)(c2ccccc2)c2ccccc2)C[C@@](O)(c2ccccc2)CC12CC2
2. CN(C)CCCC[C@@H]1NC(=O)[C@H]2C[C@@H](C(=O)NCCCCCN)[C@@H](c3cccc(OCCO)c3)N2C1=O
3. C[N+](C)(C)CCCCCCNC(=O)[C@H]1C[C@H]2C(=O)N[C@@H](Cc3ccccc3)C(=O)N2[C@H]1c1cccc(OCCO)c1

Result:
[-0.102, 0.558, 0.293]

Please report composite z-score for every entry that follows.
1. O=C1O[C@H](c2ccccc2)[C@H](c2ccccc2)N2[C@H]1[C@@H](C(=O)N1CCN(c3ncccn3)CC1)[C@]1(C(=O)Nc3ccc(C#CC4=CCCCC4)cc31)[C@H]2c1ccccc1OCCO
2. O=C(NCCN1CCOCC1)[C@@H]1c2ccccc2C(=O)N(Cc2cc(C(F)(F)F)cc(C(F)(F)F)c2)[C@H]1c1ccc(CO)cc1

Result:
[0.548, -0.214]

State recorded composite z-score for all listed molecules.
1. [N-]=[N+]=Nc1ccccc1[C@H]1OC(c2ccc(OCCCO)cc2)=N[C@@]1(Cc1ccccc1)C(=O)N1CCOCC1
2. O=C1C2C=CC(C(O)C=Cc3ccc([N+](=O)[O-])cc3)N(n3cnnc3)C2C(=O)N1Cc1ccccc1 (stereo not given)
3. CC(C)[C@@H](C(=O)O)n1cc(C2(O)CCCCC2)nn1
4. CCOc1cc(C(O)C2C=CC3C(=O)N(c4ccccc4)C(=O)C3N2Nc2ccc(C(C)C)cc2)ccc1O (stereo not given)
5. [N-]=[N+]=Nc1ccccc1C[C@]1(C(=O)N2CCCCC2)COC(c2ccc(OCCCO)cc2)=N1
6. COC(=O)[C@@]1(Cc2ccc(F)cc2)[C@H]2c3cc(C(=O)N(C)C)n(Cc4ccc(C)o4)c3C[C@H]2CN1C(=O)c1ccccc1
7. COCCCNC(=O)[C@@H]1c2ccccc2C(=O)N(Cc2ccccc2)[C@H]1c1ccc(CO)cc1

Result:
[0.698, 0.375, 0.78, 0.707, 0.87, 0.0793, 0.12]
